Target: T1, HER2 immobilised on a Biacore chip (UniProt P04626 23-652, limits assumed)
T1 construct: also called immobilised HER2 target antigen (Biacore SPR); HER2 chip
Assay: Biacore SPR, HER2 amine-coupled to the chip
pKd: −log10 of the molar value.
endpoint: pKd

{"columns": ["binder", "meas.value"],
 "data": [
  ["scFv (TCT1067)-P5-C5 DAR 10.9 (scFv, P5-C5 on lysine residues; DAR 10.4 by AAA, 11.7 by MS, overall average 10.9, also called TCT1067-P5C5 ADC 1; compound 71) scFv: SGSGGSGQVQLVQSGAEVKKPGESLKISCKGSGYSFTSYWIAWVRQMPGKGLEYMGLIYPGDSDTKYSPSFQGQVTISVDKSVSTAYLQWSSLKPSDSAVYFCARHDVGYCTDRTCAAWPEWLGVWGQGTLVTVSSGGGGSGGGGSGGGGSQSVLTQPPSVSAAPGQKVTISCSGSSSNIGNNYVSWYQQLPGTAPKLLIYGHTNRPAGVPDRFSGSKSGTSASLAISGFRSEDEADYYCASWDYTLSGWVFGGGTKLTVLMASMTGGQQMG", 9.52],
  ["scFv (TCT)-Acetate DAR 15 (scFv, acetyl groups (from Acetate-NHS) on lysines, N-terminal amine and further residues, 15 additions by LC-MS, also called TCT-acetate conjugate 1) scFv: SGSGGSGQVQLVQSGAEVKKPGESLKISCKGSGYSFTSYWIAWVRQMPGKGLEYMGLIYPGDSDTKYSPSFQGQVTISVDKSVSTAYLQWSSLKPSDSAVYFCARHDVGYCSSSNCAAWPEYFQHWGQGTLVTVSSGGGGSGGGGSGGGGSQSVLTQPPSVSAAPGQKVTISCSGSSSNIGNNYVSWYQQLPGTAPKLLIYGHTNRPAGVPDRFSGSKSGTSASLAISGFRSEDEADYYCAAWDDSLSGWVFGGGTKLTVLMASMTGGQQMG", 8.54],
  ["scFv (TCT) (scFv, Anti-HER2 C6.5 scFv with residual Ser, GSGGSG linker and C-terminal T7 tag; also called cleaved TCT; unmodified scFv (TCT)) scFv: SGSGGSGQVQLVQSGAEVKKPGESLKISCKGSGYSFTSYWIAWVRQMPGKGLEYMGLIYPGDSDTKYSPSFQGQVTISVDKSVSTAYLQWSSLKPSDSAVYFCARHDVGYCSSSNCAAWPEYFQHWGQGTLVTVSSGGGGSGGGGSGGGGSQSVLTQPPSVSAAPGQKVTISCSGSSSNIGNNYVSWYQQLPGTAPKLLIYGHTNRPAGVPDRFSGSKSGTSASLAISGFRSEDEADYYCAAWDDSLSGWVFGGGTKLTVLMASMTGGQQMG", 8.83]
]}
